Value source: patent US7807668B2

Property: inhibition in vivo at 25.6 µmol/kg; scope: individual molecules
tested on: neutrophils in the peritoneal wash; assay: Mouse gout model (monosodium urate crystal-induced murine peritonitis); assay type: in vivo; conditions: Neutrophil, oral, immediately prior to MSU crystals i.p., peritoneal wash 4 hours post, total neutrophils per mL, read-out: % suppression Neutrophil infiltration
RECORDED_ENDPOINT: inhibition in vivo at 25.6 µmol/kg (%)

COMPOUND_STRING: N#Cc1ccc2c(n1)C(=O)C1=C(C2=O)S(=O)(=O)CCN1
TESTED_ON: neutrophils in the peritoneal wash
RECORDED_ENDPOINT: inhibition in vivo at 25.6 µmol/kg
RECORDED_MEASUREMENT: 25

COMPOUND_STRING: Cc1ccc2c(n1)C(=O)C1=C(NCCS1(=O)=O)C2=O
TESTED_ON: neutrophils in the peritoneal wash
RECORDED_ENDPOINT: inhibition in vivo at 25.6 µmol/kg
RECORDED_MEASUREMENT: 30

COMPOUND_STRING: CN(C)C(=O)c1ccc2c(n1)C(=O)C1=C(C2=O)S(=O)(=O)CCN1
TESTED_ON: neutrophils in the peritoneal wash
RECORDED_ENDPOINT: inhibition in vivo at 25.6 µmol/kg
RECORDED_MEASUREMENT: 65

COMPOUND_STRING: Cc1ccc2c(n1)C(=O)C1=C(C2=O)S(=O)(=O)CCN1
TESTED_ON: neutrophils in the peritoneal wash
RECORDED_ENDPOINT: inhibition in vivo at 25.6 µmol/kg
RECORDED_MEASUREMENT: 50

COMPOUND_STRING: Cc1ccc2c(n1)C(=O)C1=C(C2=O)S(=O)(=O)C=CN1
TESTED_ON: neutrophils in the peritoneal wash
RECORDED_ENDPOINT: inhibition in vivo at 25.6 µmol/kg
RECORDED_MEASUREMENT: 30

COMPOUND_STRING: O=C1C2=C(C(=O)c3ccccc31)S(=O)(=O)CCN2
TESTED_ON: neutrophils in the peritoneal wash
RECORDED_ENDPOINT: inhibition in vivo at 25.6 µmol/kg
RECORDED_MEASUREMENT: 25

COMPOUND_STRING: O=C(/C=C/c1ccc2c(n1)C(=O)C1=C(C2=O)S(=O)(=O)CCN1)c1ccccc1
TESTED_ON: neutrophils in the peritoneal wash
RECORDED_ENDPOINT: inhibition in vivo at 25.6 µmol/kg
RECORDED_MEASUREMENT: 30

COMPOUND_STRING: O=C1C2=C(NCCS2(=O)=O)C(=O)c2ncccc21
TESTED_ON: neutrophils in the peritoneal wash
RECORDED_ENDPOINT: inhibition in vivo at 25.6 µmol/kg
RECORDED_MEASUREMENT: 30
